tested on: Magnusiomyces capitatus; assay: Antimicrobial activity against Dipodascus capitatus by broth microdilution method; assay type: functional
*1 amine or outer side, *2 acyl side, *3 side chain or, on linkers, in order; H or OH if unused. Where a SMILES comes first, the peptide text is derived from it. Bridges are numbered along the chain shown (N, C = ends). [ ]: non-standard residue; d: D form. The star is where a group is joined. pTerphenylCO(4''-OnC5H11) = CCCCCOc1ccc(-c2ccc(-c3ccc(C(=O)*)cc3)cc2)cc1; Orn(4R-OH,5R-OH) = O=C([C@H](C[C@@H](O)[C@@H](O)N[*:3])N[*:1])[*:2]; hTyr(3S-OH,4S-OH) = N[C@H](C(=O)O)[C@H](O)[C@@H](O)c1ccc(O)cc1; Pro(3S-OH,4S-Me) = C[C@H]1CN[C@H](C(=O)O)[C@H]1O; Hyp = O=C(O)[C@@H]1C[C@@H](O)CN1
RECORDED_ENDPOINT: MIC50 (µg/mL)
State just the number; it will be interpreted in µg/mL.

Would you please look over these solved cases?
[
  {
    "COMPOUND": "OC(Cn1cncn1)(Cn1cncn1)c1ccc(F)cc1F",
    "STUDY_SYSTEM": "Magnusiomyces capitatus",
    "RECORDED_ENDPOINT": "MIC50",
    "NUMERIC_RESULT": 16
  },
  {
    "COMPOUND": "CCCCCOc1ccc(-c2ccc(-c3ccc(C(=O)N[C@H]4C[C@@H](O)[C@@H](O)NC(=O)[C@@H]5[C@@H](O)[C@@H](C)CN5C(=O)[C@H]([C@@H](C)O)NC(=O)[C@H]([C@H](O)[C@@H](O)c5ccc(O)cc5)NC(=O)[C@@H]5C[C@@H](O)CN5C(=O)[C@H]([C@@H](C)O)NC4=O)cc3)cc2)cc1 [ANIDULAFUNGIN] ({pTerphenylCO(4''-OnC5H11)}-[Orn(4R-OH,5R-OH)]T[Hyp][hTyr(3S-OH,4S-OH)]T[Pro(3S-OH,4S-Me)]; lactam 1-C)",
    "STUDY_SYSTEM": "Magnusiomyces capitatus",
    "RECORDED_ENDPOINT": "MIC50",
    "NUMERIC_RESULT": 2
  },
  {
    "COMPOUND": "CCC(C)n1ncn(-c2ccc(N3CCN(c4ccc(OCC5COC(Cn6cncn6)(c6ccc(Cl)cc6Cl)O5)cc4)CC3)cc2)c1=O (centres undefined)",
    "STUDY_SYSTEM": "Magnusiomyces capitatus",
    "RECORDED_ENDPOINT": "MIC50",
    "NUMERIC_RESULT": 0.25
  }
]

Any idea what MIC50 was measured for C[C@@H]1[C@H](O)[C@@H](C)/C=C/C=C/C=C/C=C/C=C/C=C/C=C/[C@H](O[C@@H]2O[C@H](C)[C@@H](O)[C@H](N)[C@@H]2O)C[C@@H]2O[C@](O)(C[C@@H](O)C[C@@H](O)[C@H](O)CC[C@@H](O)C[C@@H](O)CC(=O)O[C@H]1C)C[C@H](O)[C@H]2C(=O)O ?
0.5

----------
assay: Antimicrobial activity against Rhizopus microsporus by broth microdilution method; format: functional
*1 amine or outer side, *2 acyl side, *3 side chain or, on linkers, in order; H or OH if unused. Where a SMILES comes first, the peptide text is derived from it. Bridges are numbered along the chain shown (N, C = ends). [ ]: non-standard residue; d: D form. The star is where a group is joined. pTerphenylCO(4''-OnC5H11) = CCCCCOc1ccc(-c2ccc(-c3ccc(C(=O)*)cc3)cc2)cc1; Orn(4R-OH,5R-OH) = O=C([C@H](C[C@@H](O)[C@@H](O)N[*:3])N[*:1])[*:2]; hTyr(3S-OH,4S-OH) = N[C@H](C(=O)O)[C@H](O)[C@@H](O)c1ccc(O)cc1; Pro(3S-OH,4S-Me) = C[C@H]1CN[C@H](C(=O)O)[C@H]1O; Hyp = O=C(O)[C@@H]1C[C@@H](O)CN1
RECORDED_ENDPOINT: MIC90

Any idea what MIC90 was measured for CCCCCOc1ccc(-c2ccc(-c3ccc(C(=O)N[C@H]4C[C@@H](O)[C@@H](O)NC(=O)[C@@H]5[C@@H](O)[C@@H](C)CN5C(=O)[C@H]([C@@H](C)O)NC(=O)[C@H]([C@H](O)[C@@H](O)c5ccc(O)cc5)NC(=O)[C@@H]5C[C@@H](O)CN5C(=O)[C@H]([C@@H](C)O)NC4=O)cc3)cc2)cc1 [ANIDULAFUNGIN] ({pTerphenylCO(4''-OnC5H11)}-[Orn(4R-OH,5R-OH)]T[Hyp][hTyr(3S-OH,4S-OH)]T[Pro(3S-OH,4S-Me)]; lactam 1-C) ?
> 16 mg/L

----------
tested on: Lewia infectoria; test: Antimicrobial activity against Alternaria infectoria by broth microdilution method; assay type: functional
*1 amine or outer side, *2 acyl side, *3 side chain or, on linkers, in order; H or OH if unused. Where a SMILES comes first, the peptide text is derived from it. Bridges are numbered along the chain shown (N, C = ends). [ ]: non-standard residue; d: D form. The star is where a group is joined. pTerphenylCO(4''-OnC5H11) = CCCCCOc1ccc(-c2ccc(-c3ccc(C(=O)*)cc3)cc2)cc1; Orn(4R-OH,5R-OH) = O=C([C@H](C[C@@H](O)[C@@H](O)N[*:3])N[*:1])[*:2]; hTyr(3S-OH,4S-OH) = N[C@H](C(=O)O)[C@H](O)[C@@H](O)c1ccc(O)cc1; Pro(3S-OH,4S-Me) = C[C@H]1CN[C@H](C(=O)O)[C@H]1O; Hyp = O=C(O)[C@@H]1C[C@@H](O)CN1
RECORDED_ENDPOINT: MIC90

[
  {
    "COMPOUND": "CCC(C)n1ncn(-c2ccc(N3CCN(c4ccc(OCC5COC(Cn6cncn6)(c6ccc(Cl)cc6Cl)O5)cc4)CC3)cc2)c1=O (stereo not drawn)",
    "MIC90": "> 8 µg/mL"
  },
  {
    "COMPOUND": "CCCCCOc1ccc(-c2ccc(-c3ccc(C(=O)N[C@H]4C[C@@H](O)[C@@H](O)NC(=O)[C@@H]5[C@@H](O)[C@@H](C)CN5C(=O)[C@H]([C@@H](C)O)NC(=O)[C@H]([C@H](O)[C@@H](O)c5ccc(O)cc5)NC(=O)[C@@H]5C[C@@H](O)CN5C(=O)[C@H]([C@@H](C)O)NC4=O)cc3)cc2)cc1 [ANIDULAFUNGIN] ({pTerphenylCO(4''-OnC5H11)}-[Orn(4R-OH,5R-OH)]T[Hyp][hTyr(3S-OH,4S-OH)]T[Pro(3S-OH,4S-Me)]; lactam 1-C)",
    "MIC90": "> 16 µg/mL"
  }
]

Here's the next entry for you.
Any idea what MIC90 was measured for C[C@@H]1[C@H](O)[C@@H](C)/C=C/C=C/C=C/C=C/C=C/C=C/C=C/[C@H](O[C@@H]2O[C@H](C)[C@@H](O)[C@H](N)[C@@H]2O)C[C@@H]2O[C@](O)(C[C@@H](O)C[C@@H](O)[C@H](O)CC[C@@H](O)C[C@@H](O)CC(=O)O[C@H]1C)C[C@H](O)[C@H]2C(=O)O ?
> 16 µg/mL

----------
system: Aspergillus versicolor; experiment: Antimicrobial activity against Aspergillus versicolor by broth microdilution method; type: functional
*1 amine or outer side, *2 acyl side, *3 side chain or, on linkers, in order; H or OH if unused. Where a SMILES comes first, the peptide text is derived from it. Bridges are numbered along the chain shown (N, C = ends). [ ]: non-standard residue; d: D form. The star is where a group is joined. hTyr(3S-OH,4S-OH,3'-OSO3H) = N[C@H](C(=O)O)[C@H](O)[C@@H](O)c1ccc(O)c(OS(=O)(=O)O)c1; pTerphenylCO(4''-OnC5H11) = CCCCCOc1ccc(-c2ccc(-c3ccc(C(=O)*)cc3)cc2)cc1; Orn(4R-OH,5R-OH) = O=C([C@H](C[C@@H](O)[C@@H](O)N[*:3])N[*:1])[*:2]; hTyr(3S-OH,4S-OH) = N[C@H](C(=O)O)[C@H](O)[C@@H](O)c1ccc(O)cc1; Pro(3S-OH,4S-Me) = C[C@H]1CN[C@H](C(=O)O)[C@H]1O; X1 = CCCCCOc1ccc(-c2cc(-c3ccc(C(=O)*)cc3)no2)cc1; Gln(3R-OH) = NC(=O)C[C@@H](O)[C@H](N)C(=O)O; Hyp = O=C(O)[C@@H]1C[C@@H](O)CN1
Measured MIC50, listed per entry.
State just the number; it will be interpreted in µg/mL.

[
  {
    "COMPOUND": "CCCCCOc1ccc(-c2ccc(-c3ccc(C(=O)N[C@H]4C[C@@H](O)[C@@H](O)NC(=O)[C@@H]5[C@@H](O)[C@@H](C)CN5C(=O)[C@H]([C@@H](C)O)NC(=O)[C@H]([C@H](O)[C@@H](O)c5ccc(O)cc5)NC(=O)[C@@H]5C[C@@H](O)CN5C(=O)[C@H]([C@@H](C)O)NC4=O)cc3)cc2)cc1 [ANIDULAFUNGIN] ({pTerphenylCO(4''-OnC5H11)}-[Orn(4R-OH,5R-OH)]T[Hyp][hTyr(3S-OH,4S-OH)]T[Pro(3S-OH,4S-Me)]; lactam 1-C)",
    "STUDY_SYSTEM": "Aspergillus versicolor",
    "VALUE_UNITS": "µg/mL",
    "NUMERIC_RESULT": 0.03
  }
]

Here's the next entry for you.
Any idea what MIC50 was measured for CCCCCOc1ccc(-c2cc(-c3ccc(C(=O)N[C@H]4C[C@@H](O)[C@@H](O)NC(=O)[C@@H]5[C@@H](O)[C@@H](C)CN5C(=O)[C@H]([C@H](O)CC(N)=O)NC(=O)[C@H]([C@H](O)[C@@H](O)c5ccc(O)c(OS(=O)(=O)O)c5)NC(=O)[C@@H]5C[C@@H](O)CN5C(=O)[C@H]([C@@H](C)O)NC4=O)cc3)no2)cc1 [MICAFUNGIN] (X1-[Orn(4R-OH,5R-OH)]T[Hyp][hTyr(3S-OH,4S-OH,3'-OSO3H)][Gln(3R-OH)][Pro(3S-OH,4S-Me)]; lactam 1-C) ?
0.03
